IC50 overview
Assayed System: human RORγ-LBD (Homo sapiens, UniProt P51449)
Construct: made in house; host or cells: E. coli (BL-21)
Assay Method Text: ROR gamma coactivator peptide recruitment Alphascreen assay (RORγ-LBD binding to GRIP1 coactivator peptide)
Type: biochemical
Test Parameters: 5 nM human RORγ-LBD, 30 nM 7-β-hydroxycholesterol, 50 nM biotinylated GRIP1 coactivator peptide, overnight incubation at room temperature; read-out: result (pIC50, RORγ coactivator peptide recruitment Alphascreen assay) (converted)
Source text: Alphascreen™ is a bead-based amplified homogenous luminescent proximity assay that can be used for measuring the effect of compounds on protein-protein interactions. When biological interactions bring donor and acceptor beads into close proximity, reactive oxygen, generated upon laser excitation of the donor beads, initiates a luminescence/fluorescence cascade in the acceptor beads that leads to a highly amplified signal that can be measured as light in the 520-620 nm range. […]
The reply should contain only the number, in nM.

Solved cases (5 shown):
1. C[C@]1(C(=O)O)CC[C@H](n2ncc(C(=O)N(CC(=O)c3c(F)cccc3Cl)CC3(F)CCCC3)c2C(F)(F)F)CC1
4.27
2. CC1(CN(CC(=O)c2c(Cl)cncc2Cl)C(=O)c2cnn([C@@H]3CC[C@@H](C(=O)O)C(C)(C)C3)c2C(F)(F)F)CCC1
28.8
3. Cc1cc(Cl)c(C(=O)CN(CC2CC2)C(=O)c2cnn([C@H]3CC[C@](C)(C(=O)O)CC3)c2C(F)(F)F)c(Cl)c1
6.17
4. CC1(CN(CC(=O)c2c(Cl)cncc2Cl)C(=O)c2cnn([C@H]3CC[C@](C)(C(=O)O)CC3)c2C(F)(F)F)CC1
11.7
5. CC1(C)CC(CN(CC(=O)c2c(Cl)cccc2Cl)C(=O)c2cnn([C@H]3CC[C@H](C(=O)O)CC3)c2C(F)(F)F)C1
1.86

Query: # IC50 lookup, item `CC(C)(F)CN(CC(=O)c1c(Cl)cccc1Cl)C(=O)c1cnn([C@H]2CC[C@](C)(C(=O)O)CC2)c1C(F)(F)F`
Reply: 3.89

Query: For the compound shown here, `C[C@@H]1C[C@@H](n2ncc(C(=O)N(CC(=O)c3c(Cl)cccc3Cl)[C@H]3C[C@@H]4[C@H](C3)C4(C)C)c2C(F)(F)F)CC[C@@H]1C(=O)O` , give the reported IC50.
Reply: 2.09

Query: If you can, please state the reported IC50 value of `Cc1cc(Cl)c(CCN(CC2CCCCC2)C(=O)c2cnn([C@H]3CC[C@H](C(=O)O)CC3)c2C(F)(F)F)c(Cl)c1` .
Reply: 1.78

Query: Please look up its IC50: `Cc1cc(Cl)c(C(=O)CN(C(=O)c2cnn([C@H]3CC[C@H](C(=O)O)CC3)c2C(F)(F)F)[C@H]2C[C@H](C(C)(C)C)C2)c(Cl)c1`
Reply: 9.55

Query: // IC50 lookup, key: `CC1(C)CC[C@@H]1N(CC(=O)c1c(Cl)cccc1Cl)C(=O)c1cnn([C@H]2CC[C@@H](C(=O)O)CC2)c1C(F)(F)F`
Reply: 724

Query: GET /values?readout=IC50&item= `C[C@]1(C(=O)O)CC[C@H](n2ncc(C(=O)N(CC(=O)c3c(Cl)cccc3Cl)[C@H]3CCOC4(CCC4)C3)c2C(F)(F)F)CC1`
Reply: 70.8

Query: What does the data say about its IC50? Entry: `CC1(C)C[C@H]1CN(CCc1c(Cl)cncc1Cl)C(=O)c1cnn([C@H]2CC[C@H](C(=O)O)CC2)c1C(F)(F)F`
Reply: 7.08

---

Parameter: log10 of IC50. Scope: all listed entries.
Assayed System: ligand binding domain of human ROR gamma (Homo sapiens, UniProt P51449)
Construct: NM_001001523; expressed in transfected cells; host or cells: HEK293T
Sequence (P51449 247-497 isoform P51449-2): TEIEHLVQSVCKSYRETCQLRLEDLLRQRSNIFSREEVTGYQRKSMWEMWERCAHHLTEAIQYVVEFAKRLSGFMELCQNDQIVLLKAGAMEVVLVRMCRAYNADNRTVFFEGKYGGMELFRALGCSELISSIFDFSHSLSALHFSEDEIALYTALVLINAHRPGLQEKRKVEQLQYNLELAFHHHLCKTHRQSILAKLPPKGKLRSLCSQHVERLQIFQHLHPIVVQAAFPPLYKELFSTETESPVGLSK
Assay Method Text: ROR gamma reporter gene assay (GAL4-RORγ LBD luciferase, Dual-Glo)
Type: cell-based
Test Parameters: HEK293T cells transfected with pM-ROR gamma, 8 concentrations 3.5 nM to 10.5 μM, 24 h incubation; read-out: result (pIC50, inhibition of RORγ transcriptional activity) (converted)
Method: Luciferase reporter gene assay was used to assess inhibition of RORγ transcriptional activity. ROR gamma expression vector was prepared by inserting the ligand binding domain of human ROR gamma (amino acid 247-497 of Genbank Accession NO. NM_001001523) adjacent to the yeast GAL4 transcription factor DNA binding domain in the expression vector pM (Clontech). […] Data was plotted and pIC50 values were calculated using the XLfit program (ID Business Solutions Ltd.).
A value of 2 here means IC50 of 100 in pM, since values are log10.

1) CC1(C)CCC(N(CC(O)c2c(Cl)cc(F)cc2Cl)C(=O)c2cnn([C@H]3CC[C@](C)(C(=O)O)CC3)c2C(F)(F)F)CC1 (single isomer, unassigned) [Example 361]
6.08
2) C[C@@H](N(CC(=O)c1c(Cl)cncc1Cl)C(=O)c1cnn([C@H]2CC[C@H](C(=O)O)CC2)c1C(F)(F)F)C(C)(C)C
5.20

Query: So what's the measured log10 of IC50 for this one? `CC(C)(C)C#CCN(CC(=O)c1c(Cl)cc(F)cc1Cl)C(=O)c1cnn([C@H]2CC[C@](C)(C(=O)O)CC2)c1C(F)(F)F`
Reply: 5.53

Query: # lookup: log10 of IC50 of `CC(C)(C)S(=O)(=O)CCN(CC(=O)c1c(Cl)cc(F)cc1Cl)C(=O)c1cnn([C@H]2CC[C@](C)(C(=O)O)CC2)c1C(F)(F)F`
Reply: 6.06

Query: Requested field: log10 of IC50. Item: `O=C(CN(CC1(F)CCCC1)C(=O)c1cnn([C@H]2CC[C@H](C(=O)O)CC2)c1C(F)(F)F)c1c(Cl)cncc1Cl`
Reply: 4.15

Query: // log10 of IC50 lookup, key: CC(C)(C)CC1CC(CN(CC(=O)c2c(Cl)cncc2Cl)C(=O)c2cnn([C@H]3CC[C@H](C(=O)O)CC3)c2C(F)(F)F)C1 (some centres unmarked)
Reply: 5.30

---

Assayed System: ligand binding domain of human ROR gamma (Homo sapiens)
Construct: NM_001001523; expressed in transfected cells; host or cells: HEK293T
Assay Method Text: ROR gamma reporter gene assay (GAL4-RORγ LBD luciferase, Dual-Glo)
Format: cell-based
Test Parameters: HEK293T cells transfected with pM-ROR gamma, 8 concentrations 3.5 nM to 10.5 μM, 24 h incubation; read-out: result (pIC50, inhibition of RORγ transcriptional activity) (converted)
Property Measured: IC50 (pM)
Response body: numeric value in pM, unit text excluded.

Worked examples, 8 compounds total:
1. Cc1cc(Cl)c(C(=O)CN(C(=O)c2cnn(C34CCC(C(=O)O)(CC3)CC4)c2C(F)(F)F)[C@H]2C[C@@H]3[C@H](C2)C3(C)C)c(Cl)c1 [Example 321]
11700
2. O=C(CN(CC1CCCCC1)C(=O)c1cnn([C@H]2CC[C@H](C(=O)O)CC2)c1C(F)(F)F)c1c(Cl)cncc1Cl [Example 30]
46800
3. O=C(CN(Cc1cccc(O)c1)C(=O)c1cnn([C@H]2CC[C@H](C(=O)O)CC2)c1C(F)(F)F)c1c(Cl)cncc1Cl [Example 153]
209000
4. CC(C)(CN(Cc1cc(F)cc(F)c1)C(=O)c1cnn([C@H]2CC[C@H](C(=O)O)CC2)c1C(F)(F)F)c1c(Cl)cccc1Cl [Example 118]
1.74e+06
5. CC1(C)CCC(N(CCc2c[nH]c3cccc(Cl)c23)C(=O)c2cnn([C@H]3CC[C@](C)(C(=O)O)CC3)c2C(F)(F)F)CC1 [Example 349]
79400
6. CC1(CN(CC(=O)c2c(Cl)cncc2Cl)C(=O)c2cnn([C@H]3CC[C@](C)(C(=O)O)CC3)c2Cl)CC1 [Example 378]
74100
7. CC1(C)[C@@H]2C[C@H](N(CC(=O)c3c(Cl)cc(F)cc3Cl)C(=O)c3cnn([C@H]4CC[C@](C)(C(=O)O)CC4)c3C(F)(F)F)C[C@@H]21 [Example 199]
5010
8. O=C(CN(Cc1cc(F)cc(F)c1)C(=O)c1cnn([C@H]2CC[C@H](C(=O)O)CC2)c1C(F)(F)F)c1ncc(C(F)(F)F)cc1Cl [Example 152]
2.82e+06

Please look at the following compound next.
Query: Looking for the measured IC50 of O=C(CN(CC1(F)CCCC1)C(=O)c1cnn(C23CCC(C(=O)O)(CC2)CC3)c1C(F)(F)F)c1c(Cl)cc(F)cc1Cl [Example 271] , can you help?
Reply: 5130
